- target_of_assay: T1, recombinant human TIGIT (human, UniProt Q495A1 22-141, limits assumed)
- T1 construct: recombinant human TIGIT used in Carterra SPR; also called hTIGIT
- T1 sequence (looked up): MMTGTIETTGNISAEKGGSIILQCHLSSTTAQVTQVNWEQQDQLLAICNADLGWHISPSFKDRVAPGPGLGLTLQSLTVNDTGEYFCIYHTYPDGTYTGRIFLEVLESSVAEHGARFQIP
- experiment_description: SPR Carterra, average
Kindly supply the reported Kd values for the records listed here.
One number for each entry, in nM.

Example entries and their recorded answers appear below.
[
  {
    "binder": "TIGIT-SC189 (Fc fusion, VHH-Fc fusion in assay) VHH: EVQLVESGGGLVQPGGSLRLSCAASGNTFSGGFMGWFRQAPGKEREWVASVLRGGYTWYADSVKGRFTISADNSKNTAYLQMNSLKPEDTAVYYCVTDVGAPDYWGQGTLVTVSS",
    "readout_units": "nM",
    "measured": 883
  },
  {
    "binder": "TIGIT-SC141 (Fc fusion, VHH-Fc fusion in assay) VHH: EVQLVESGGGLVQPGGSLRLSCAASGNAFSSSVMGWFRQAPGKEREFVAGIWRSGSLKAYADSVKGRFTISADNSKNTAYLQMNSLRPEDTAVYYCARAYVGMTTVTFDHWGQGTLVTVSS",
    "readout_units": "nM",
    "measured": 903
  },
  {
    "binder": "TIGIT-SC102 (Fc fusion, VHH-Fc fusion in assay) VHH: EVQLVESGGGLVQPGGSLRLSCAASGSTFSKHHAMGWFRQAPGKEREFVAAIRWSGGNTYYADSVKGRFTISADNSKNTAYLQMNSLKPEDTAVYYCARWYSSSGDYYYMDVWGQGTLVTVSS",
    "readout_units": "nM",
    "measured": 33.5
  }
]

Turning now to a further binder:
Param item = TIGIT-SC152 (Fc fusion, VHH-Fc fusion in assay) VHH: EVQLVESGGGLVQPGGNLRLSCAASGSTFSKHHAMGWFRQAPGKEREFVAGIIRSGTLKAYADSVKGRFTISADNSKNTAYLQMNSLKPEDTAVYYCTRGRAARHNLWYFDLWGQGTLVTVSS ; retrieve measured Kd.
1470
